method: Linear sweep voltammetry with rotating disc electrode, inhibitors in electrolyte solution
recordedConditions: 10 ppm inhibitor solution in 5% NaCl-PBS pH 7; copper rotating disc electrode 1000 rpm; LSV
Task for the reader: assign each of the following molecules its reported Current (A) @ −800 mV.

> print(dat)
                                   molecule         observed
1  Sc1nnc([S][Al]([S]c2nnc(S)s2)[S]c2nnc(S)s2)s1 [1:3AlDMcT (acid)]  −2.83 × 10^−4 A
2                    Sc1nnc(SSc2nnc(S)s2)s1  −2.68 × 10^−4 A
3  N1=C2SSc3nnc(s3)SSC(=N1)S2 [BDTD, Bis-[2,5-dithio-1,3,4-thiadiazole]]  −3.00 × 10^−4 A
4                               Sc1nsc(S)n1  −1.53 × 10^−4 A

Using the record for Sc1nnc([S][Al]([S]c2nnc(S)s2)[S]c2nnc(S)s2)s1 [1:3AlDMcT] , report its Current (A) @ −800 mV.
−2.25 × 10^−4 A
